Origin of values: the supplement of paper PMC10567573

B1: SOAT1 (parent)
chain: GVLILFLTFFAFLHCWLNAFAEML

# Variants of: B1
# ASSAY_NOTES: protein stability index of a GFP-peptide fusion (GPS, HEK-293T) (PSI 1-6); higher = more stable;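 further: lentivirally expressed fusions sorted by FACS into six bins by GFP to DsRed ratio, PSI derived from sequencing read proportions per bin multiplied by bin number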
# CONDITION_PARAMETERS: c terminus: a fixed tail appended

>  <SEQUENCE_CODE>
IVLILFLTFFAFLHCWLNAFAEML [G1I]

>  <protein stability index>
3.7

$$$$
>  <SEQUENCE_CODE>
GVLILFLTFFAFLHCWLNQFAEML [A19Q]

>  <protein stability index>
2.59

$$$$
>  <SEQUENCE_CODE>
GVLILFLTFFAFLECWLNAFAEML [H14E]

>  <protein stability index>
2.94

$$$$
>  <SEQUENCE_CODE>
GVLILFPTFFAFLHCWLNAFAEML [L7P]

>  <protein stability index>
2.68

$$$$
>  <SEQUENCE_CODE>
SVLILFLTFFAFLHCWLNAFAEML [G1S]

>  <protein stability index>
4.28

$$$$
>  <SEQUENCE_CODE>
GALILFLTFFAFLHCWLNAFAEML [V2A]

>  <protein stability index>
2.01

$$$$
>  <SEQUENCE_CODE>
GVLILFLTFFAFLHCWLNAFEEML [A21E]

>  <protein stability index>
1.83

$$$$
>  <SEQUENCE_CODE>
GVLILFLLFFAFLHCWLNAFAEML [T8L]

>  <protein stability index>
2.04

$$$$
>  <SEQUENCE_CODE>
GVLILFQTFFAFLHCWLNAFAEML [L7Q]

>  <protein stability index>
2.92

$$$$
>  <SEQUENCE_CODE>
GVLILFLTFFAALHCWLNAFAEML [F12A]

>  <protein stability index>
2.65

$$$$
>  <SEQUENCE_CODE>
GVLILFLTFQAFLHCWLNAFAEML [F10Q]

>  <protein stability index>
4.33

$$$$
>  <SEQUENCE_CODE>
GVLILFLTFRAFLHCWLNAFAEML [F10R]

>  <protein stability index>
3.84

$$$$
>  <SEQUENCE_CODE>
GVLILFLTFFAFLWCWLNAFAEML [H14W]

>  <protein stability index>
2.17

$$$$
>  <SEQUENCE_CODE>
GVLILFLTFFAFLHCWLNAFAEMY [L24Y]

>  <protein stability index>
2.88

$$$$
>  <SEQUENCE_CODE>
GVEILFLTFFAFLHCWLNAFAEML [L3E]

>  <protein stability index>
2.74

$$$$
>  <SEQUENCE_CODE>
GVLILFLTFFAFLHTWLNAFAEML [C15T]

>  <protein stability index>
2.47

$$$$
>  <SEQUENCE_CODE>
GVLILFLTFFAWLHCWLNAFAEML [F12W]

>  <protein stability index>
2.92

$$$$
>  <SEQUENCE_CODE>
GVLILFLSFFAFLHCWLNAFAEML [T8S]

>  <protein stability index>
3.41

$$$$
>  <SEQUENCE_CODE>
GVLILFLTFFAMLHCWLNAFAEML [F12M]

>  <protein stability index>
2.87

$$$$
>  <SEQUENCE_CODE>
GVLILFLTFFRFLHCWLNAFAEML [A11R]

>  <protein stability index>
3.9

$$$$
>  <SEQUENCE_CODE>
GCLILFLTFFAFLHCWLNAFAEML [V2C]

>  <protein stability index>
2.05

$$$$
>  <SEQUENCE_CODE>
GILILFLTFFAFLHCWLNAFAEML [V2I]

>  <protein stability index>
2.62

$$$$
>  <SEQUENCE_CODE>
GVLILFLTFFAFLHYWLNAFAEML [C15Y]

>  <protein stability index>
2.79

$$$$
>  <SEQUENCE_CODE>
GVLILFLTFFAFLHCWLNAFAEYL [M23Y]

>  <protein stability index>
2.54

$$$$
>  <SEQUENCE_CODE>
GVLILFLTFFAFRHCWLNAFAEML [L13R]

>  <protein stability index>
2.96

$$$$
>  <SEQUENCE_CODE>
GVLILFLTFFAFLHCWLKAFAEML [N18K]

>  <protein stability index>
2.48

$$$$
>  <SEQUENCE_CODE>
GVLILFLTFFAFLHCWLNADAEML [F20D]

>  <protein stability index>
3.92

$$$$
>  <SEQUENCE_CODE>
GVLILFLTMFAFLHCWLNAFAEML [F9M]

>  <protein stability index>
3.56

$$$$
>  <SEQUENCE_CODE>
GVLILFLTFFAFLHCWLEAFAEML [N18E]

>  <protein stability index>
3.51

$$$$
>  <SEQUENCE_CODE>
GVLILFLTFFAFLHCWLNAWAEML [F20W]

>  <protein stability index>
3.57

$$$$
>  <SEQUENCE_CODE>
GVLILFLTFFAFLHCWLVAFAEML [N18V]

>  <protein stability index>
2.45

$$$$
>  <SEQUENCE_CODE>
GVLILFLTFFAFLHCDLNAFAEML [W16D]

>  <protein stability index>
2.4

$$$$
>  <SEQUENCE_CODE>
QVLILFLTFFAFLHCWLNAFAEML [G1Q]

>  <protein stability index>
2.35

$$$$
>  <SEQUENCE_CODE>
GVLILFLTFFAFLHCWLNAFAEMF [L24F]

>  <protein stability index>
2.23

$$$$
>  <SEQUENCE_CODE>
GVLILFLTFFAFLHCWLNAFAEMI [L24I]

>  <protein stability index>
2.63

$$$$
>  <SEQUENCE_CODE>
GVLILFLTFFAFEHCWLNAFAEML [L13E]

>  <protein stability index>
3.16

$$$$
>  <SEQUENCE_CODE>
GVLILFLTFFAFLHCWLNAFAKML [E22K]

>  <protein stability index>
2.31

$$$$
>  <SEQUENCE_CODE>
GVLILFLTFKAFLHCWLNAFAEML [F10K]

>  <protein stability index>
2.35

$$$$
>  <SEQUENCE_CODE>
GVLGLFLTFFAFLHCWLNAFAEML [I4G]

>  <protein stability index>
4.32

$$$$
>  <SEQUENCE_CODE>
GVLILFLTFFSFLHCWLNAFAEML [A11S]

>  <protein stability index>
2.69

$$$$
>  <SEQUENCE_CODE>
GVLILFVTFFAFLHCWLNAFAEML [L7V]

>  <protein stability index>
2.56

$$$$
>  <SEQUENCE_CODE>
GVLILFLTFFAFLHCWLNAFFEML [A21F]

>  <protein stability index>
3.12

$$$$
>  <SEQUENCE_CODE>
GVLILFLTFFAFLHCWLNYFAEML [A19Y]

>  <protein stability index>
2.29

$$$$
>  <SEQUENCE_CODE>
GVLILFLTFFAFLHCWQNAFAEML [L17Q]

>  <protein stability index>
2.24

$$$$
>  <SEQUENCE_CODE>
GVLILFLTFFAVLHCWLNAFAEML [F12V]

>  <protein stability index>
1.84

$$$$
>  <SEQUENCE_CODE>
GVLILFLTFFAFLHCWLNAHAEML [F20H]

>  <protein stability index>
3.21

$$$$
